test: basal RPMI8226 viability, no added stimulus, profiling panel, cell-based, calcein-AM fluorescence, 48 h, PK04 Diversity Set (AID 1166);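 further: cells grown under basal conditions without added stimulus; test concentration not given here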
experimental.setup: RPMI8226 myeloma viability, higher = more signal
Cut-off -0.6 on z-score: below means 1, at or above means 0.

Incoming: Does the reported z-score of the following molecule sit strictly below -0.6? [N-]=[N+]=NCc1ccccc1C[C@@]1(C(N)=O)N=C(c2ccc(OCCCO)cc2)O[C@@H]1c1ccccc1N=[N+]=[N-]
Outgoing: 1

Incoming: Does the reported z-score of the following molecule sit strictly below -0.6? CC(C)(C)OC(=O)N1[C@@H](C=C(Br)Br)COC1(C)C
Outgoing: 1

Incoming: Does the reported z-score of the following molecule sit strictly below -0.6? O=C1NC(=O)C2C1C=CC(C(O)c1ccc(F)cc1)N2Nc1ccc(Cl)cc1Cl (stereo unspecified)
Outgoing: 1

Incoming: Does the reported z-score of the following molecule sit strictly below -0.6? COC(=O)[C@@]1(Cc2ccc(F)cc2)[C@H]2c3cc(C(=O)N(C)C)n(Cc4ccc(C(F)(F)F)nc4)c3C[C@H]2CN1C(=O)c1ccccc1
Outgoing: 1

Incoming: Does the reported z-score of the following molecule sit strictly below -0.6? O=C1O[C@H](c2ccccc2)[C@H](c2ccccc2)N2[C@H]1[C@@H](C(=O)O)[C@]1(C(=O)Nc3ccccc31)[C@H]2c1ccc(OCCO)cc1
Outgoing: 1

Incoming: Does the reported z-score of the following molecule sit strictly below -0.6? [N-]=[N+]=Nc1ccccc1C[C@]1(C(=O)N2CCCCC2)N=C(c2ccc(OCCCO)cc2)O[C@H]1c1ccccc1
Outgoing: 1

Incoming: Does the reported z-score of the following molecule sit strictly below -0.6? COc1cccc(C)c1NC(=O)O[C@H]1[C@H](OC(=O)Nc2ccc3c(c2)OCO3)[C@H](OC(=O)Nc2ccc3c(c2)OCO3)[C@@H](OC)O[C@@H]1CO
Outgoing: 1

Incoming: Does the reported z-score of the following molecule sit strictly below -0.6? [N-]=[N+]=Nc1ccccc1C[C@]1(C(N)=O)COC(c2ccc(OCCCO)cc2)=N1
Outgoing: 0

Incoming: Does the reported z-score of the following molecule sit strictly below -0.6? COc1ccc([Si](C)(C)[C@H]2[C@H](CC(=O)N(CCO)Cc3ccccc3)O[C@@]3(C(=O)N(c4ccccc4)c4ccccc43)[C@@H]2C)cc1
Outgoing: 1

Incoming: Does the reported z-score of the following molecule sit strictly below -0.6? COCCOC(=O)N1C(=O)[C@@]2(c3cc(C#CC4(O)CCCCCC4)ccc31)[C@H](C(N)=O)[C@H]1C(=O)O[C@H](c3ccccc3)[C@H](c3ccccc3)N1[C@@H]2c1ccc(OCCO)cc1
Outgoing: 1

Incoming: Does the reported z-score of the following molecule sit strictly below -0.6? C=C(COC)C(=O)CC[C@H](OC(C)=O)c1ccccc1OCCO
Outgoing: 1

Incoming: Does the reported z-score of the following molecule sit strictly below -0.6? C=C(CCCC)C(=O)CC[C@H](OC(=O)c1ccccc1-c1ccccc1C(=O)O)c1cccc(OCCO)c1
Outgoing: 1

Incoming: Does the reported z-score of the following molecule sit strictly below -0.6? CC1CC/C=C\[C@H]2OC34C=CCN(C(C)C)C(=O)[C@H]3N(C(C)CO)C(=O)[C@@H]4C2C(=O)O1 (stereo partly specified)
Outgoing: 0

Incoming: Does the reported z-score of the following molecule sit strictly below -0.6? C[C@]1(C(=O)NCC(F)(F)F)c2ccccc2C(=O)N(Cc2cc(C(F)(F)F)cc(C(F)(F)F)c2)[C@H]1c1ccc(CO)cc1
Outgoing: 0

Incoming: Does the reported z-score of the following molecule sit strictly below -0.6? CC[C@@H](O[Si](C#C[Si](C(C)C)(C(C)C)C(C)C)(C(C)C)C(C)C)c1cn([C@H](C)c2ccccc2)nn1
Outgoing: 0

Cited source for all entries: PubChem BioAssay
